# Assay Notes: Antiproliferative activity against wild type p110alpha expressing human NZOV9 cells after 5 days by [3H]-thymidine incorporation assay
# Format: functional, cell-based
pIC50: −log10 of the molar value.
Assign class by pIC50: not lower than 6 means 1 (yes); lower than 6 means 0 (no).

Smiles Str | Assigned Label
CN(C)CCN(C)c1ccc([N+](=O)[O-])cc1C(=O)N(C)/N=C/c1cnn2ccc(C#N)cc12 | 0 (no)

Query: Textbook exercise: given the entry C/C(=N\N(C)S(=O)(=O)c1cc([N+](=O)[O-])ccc1N(C)Cc1ccccn1)c1cnn2ccc(C#N)cc12 , state whether its pIC50 is greater than or equal to 6.
Result: 0 (no)

Query: Now try Cc1ccc([N+](=O)[O-])cc1S(=O)(=O)N(CCO)/N=C/c1cnn2ccc(C#N)cc12 .
Result: 1 (yes)

Query: Next entry: CN(Cc1cccnc1)c1ccc([N+](=O)[O-])cc1S(=O)(=O)N(C)/N=C/c1cnn2ccc(C#N)cc12
Result: 1 (yes)

###

# Assay Notes: Antiproliferative activity against wild type p110alpha expressing human NZB5 cells after 5 days by [3H]-thymidine incorporation assay
# Assay type: functional, cell-based
Measure Name: IC50 (nM)
# unit: nM | format: bare number

Query: So what's the measured IC50 for this one? CN(/N=C/c1cnn2ccc(C#N)cc12)S(=O)(=O)c1cc([N+](=O)[O-])ccc1NCc1ccccn1
Result: 1100

Query: Continue with CN(Cc1ccccn1)c1ccc(C#N)cc1S(=O)(=O)N(C)/N=C/c1cnn2ccc(C#N)cc12
Result: 130

Query: Let us now turn to CN(C)CCN(C)c1ccc(C#N)cc1S(=O)(=O)N(C)/N=C/c1cnn2ccc(C#N)cc12
Result: 55

Query: And the next one, C/C(=N\NS(=O)(=O)c1cc([N+](=O)[O-])ccc1N(C)CCCN1CCOCC1)c1cnn2ccc(C#N)cc12 ?
Result: 2400

###

# Assay Notes: Antiproliferative activity against wild type p110alpha expressing human NZOV9 cells after 5 days by [3H]-thymidine incorporation assay
# Format: functional, cell-based
The label is YES for IC50 below 400 nM and NO for IC50 equal to or exceeding 400 nM.

Reference set (5 entries):
Smiles Str | Assigned Label
C/C(=N\NS(=O)(=O)c1cc([N+](=O)[O-])ccc1N(C)Cc1ccccn1)c1cnn2ccc(Br)cc12 | NO
CN(C)CCN(C)c1ccc(C#N)cc1C(=O)N(C)/N=C/c1cnn2ccc(C#N)cc12 | NO
CN(C)CCN(C)c1ccc([N+](=O)[O-])cc1S(=O)(=O)N(C)/N=C/c1cnn2ccc(Br)cc12 | YES
CN(Cc1ccccn1)c1ccc(C#N)cc1S(=O)(=O)N(C)/N=C/c1cnn2ccc(C#N)cc12 | NO
CN(CCc1c[nH]cn1)c1ccc([N+](=O)[O-])cc1S(=O)(=O)N(C)/N=C/c1cnn2ccc(C#N)cc12 | YES

// next entry
Query: Does this compound meet the criterion IC50 < 400 nM? C/C(=N\NS(=O)(=O)c1cc([N+](=O)[O-])ccc1N(C)CCN(C)C)c1cnn2ccc(Br)cc12
Result: NO

###

# Assay Notes: Antiproliferative activity against wild type p110alpha expressing human NZB5 cells after 5 days by [3H]-thymidine incorporation assay
# Type: functional, cell-based
Mark yes for IC50 under 0.4 µM, no if at or over.

Smiles Str | Assigned Label
CN(Cc1cccnc1)c1ccc([N+](=O)[O-])cc1S(=O)(=O)N(C)/N=C/c1cnn2ccc(C#N)cc12 | no
CN(/N=C/c1cnn2ccc(C#N)cc12)S(=O)(=O)c1cc([N+](=O)[O-])ccc1OCCN1CCOCC1 | no
C/C(=N\NS(=O)(=O)c1cc([N+](=O)[O-])ccc1N(C)CCCN1CCOCC1)c1cnn2ccc(Br)cc12 | no
CN(C)CCCN(C)c1ccc([N+](=O)[O-])cc1S(=O)(=O)N(C)/N=C/c1cnn2ccc(C#N)cc12 | yes
C/C(=N\NS(=O)(=O)c1cc([N+](=O)[O-])ccc1N(C)Cc1ccccn1)c1cnn2ccc(Br)cc12 | yes
CCN(CC)CCN(C)c1ccc([N+](=O)[O-])cc1S(=O)(=O)N(C)/N=C/c1cnn2ccc(C#N)cc12 | no

Query: For this compound, is IC50 lower than 0.4 µM? CN(CCCN1CCOCC1)c1ccc(C#N)cc1S(=O)(=O)N(C)/N=C/c1cnn2ccc(C#N)cc12
Result: yes

Query: Can you check CN(C)CCN(C)c1ccc(C#N)cc1C(=O)N(C)/N=C/c1cnn2ccc(C#N)cc12 next?
Result: no

Query: # iterate: CN(CCCN1CCOCC1)c1ccc([N+](=O)[O-])cc1S(=O)(=O)N(C)/N=C/c1cnn2ccc(C#N)cc12
Result: yes

Query: Query C/C(=N\NS(=O)(=O)c1cc([N+](=O)[O-])ccc1N(C)CCN(C)C)c1cnn2ccc(Br)cc12 next
Result: no

###

Below, each entry is listed alongside its reported IC50.
# Assay Notes: Antiproliferative activity against wild type p110alpha expressing human NZOV9 cells after 5 days by [3H]-thymidine incorporation assay
# Type: functional, cell-based
Expressed in nM, but write only the number.

Smiles Str | Unit Of Measure | IC50
CN(CCc1ccncc1)c1ccc([N+](=O)[O-])cc1S(=O)(=O)N(C)/N=C/c1cnn2ccc(C#N)cc12 | nM | 250
CN(/N=C/c1cnn2ccc(Br)cc12)S(=O)(=O)c1cc([N+](=O)[O-])ccc1OCCN1CCOCC1 | nM | 550
C/C(=N\N(C)S(=O)(=O)c1cc([N+](=O)[O-])ccc1N(C)Cc1ccccn1)c1cnn2ccc(Br)cc12 | nM | 3000
CCN(CC)CCN(C)c1ccc([N+](=O)[O-])cc1S(=O)(=O)N(C)/N=C/c1cnn2ccc(C#N)cc12 | nM | 340
CN(C)CCOc1ccc([N+](=O)[O-])cc1S(=O)(=O)N(C)/N=C/c1cnn2ccc(C#N)cc12 | nM | 170
CN(Cc1ccccn1)c1ccc([N+](=O)[O-])cc1S(=O)(=O)N(C)/N=C/c1cnn2ccc(Br)cc12 | nM | 580

Now for another entry.
Query: Param item = CN(CCN)c1ccc([N+](=O)[O-])cc1S(=O)(=O)N(C)/N=C/c1cnn2ccc(C#N)cc12 ; retrieve measured IC50.
Result: 57

###

# Measurement Target: PI3K p110 beta/p85 alpha (Homo sapiens, UniProt P42338)
# Sequence (P27986 whole entry): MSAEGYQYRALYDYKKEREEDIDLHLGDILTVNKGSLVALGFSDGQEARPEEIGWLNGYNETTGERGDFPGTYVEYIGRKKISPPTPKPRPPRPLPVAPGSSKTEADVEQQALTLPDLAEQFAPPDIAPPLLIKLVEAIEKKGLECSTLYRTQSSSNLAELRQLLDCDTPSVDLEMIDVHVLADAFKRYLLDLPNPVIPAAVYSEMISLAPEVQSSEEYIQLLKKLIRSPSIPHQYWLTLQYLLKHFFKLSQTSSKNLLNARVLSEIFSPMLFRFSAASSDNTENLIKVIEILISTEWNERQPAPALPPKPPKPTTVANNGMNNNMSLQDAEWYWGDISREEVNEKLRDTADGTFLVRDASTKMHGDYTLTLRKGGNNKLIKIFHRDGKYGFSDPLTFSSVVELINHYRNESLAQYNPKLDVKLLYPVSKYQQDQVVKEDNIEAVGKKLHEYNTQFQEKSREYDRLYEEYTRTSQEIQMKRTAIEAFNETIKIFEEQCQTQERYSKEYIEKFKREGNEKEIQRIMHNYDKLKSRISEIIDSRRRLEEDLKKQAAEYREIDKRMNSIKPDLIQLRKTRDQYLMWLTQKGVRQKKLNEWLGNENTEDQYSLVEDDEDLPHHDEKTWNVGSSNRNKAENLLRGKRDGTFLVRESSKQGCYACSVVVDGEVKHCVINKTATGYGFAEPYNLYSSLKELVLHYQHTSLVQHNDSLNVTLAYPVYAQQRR
# Sequence (P42338 whole entry): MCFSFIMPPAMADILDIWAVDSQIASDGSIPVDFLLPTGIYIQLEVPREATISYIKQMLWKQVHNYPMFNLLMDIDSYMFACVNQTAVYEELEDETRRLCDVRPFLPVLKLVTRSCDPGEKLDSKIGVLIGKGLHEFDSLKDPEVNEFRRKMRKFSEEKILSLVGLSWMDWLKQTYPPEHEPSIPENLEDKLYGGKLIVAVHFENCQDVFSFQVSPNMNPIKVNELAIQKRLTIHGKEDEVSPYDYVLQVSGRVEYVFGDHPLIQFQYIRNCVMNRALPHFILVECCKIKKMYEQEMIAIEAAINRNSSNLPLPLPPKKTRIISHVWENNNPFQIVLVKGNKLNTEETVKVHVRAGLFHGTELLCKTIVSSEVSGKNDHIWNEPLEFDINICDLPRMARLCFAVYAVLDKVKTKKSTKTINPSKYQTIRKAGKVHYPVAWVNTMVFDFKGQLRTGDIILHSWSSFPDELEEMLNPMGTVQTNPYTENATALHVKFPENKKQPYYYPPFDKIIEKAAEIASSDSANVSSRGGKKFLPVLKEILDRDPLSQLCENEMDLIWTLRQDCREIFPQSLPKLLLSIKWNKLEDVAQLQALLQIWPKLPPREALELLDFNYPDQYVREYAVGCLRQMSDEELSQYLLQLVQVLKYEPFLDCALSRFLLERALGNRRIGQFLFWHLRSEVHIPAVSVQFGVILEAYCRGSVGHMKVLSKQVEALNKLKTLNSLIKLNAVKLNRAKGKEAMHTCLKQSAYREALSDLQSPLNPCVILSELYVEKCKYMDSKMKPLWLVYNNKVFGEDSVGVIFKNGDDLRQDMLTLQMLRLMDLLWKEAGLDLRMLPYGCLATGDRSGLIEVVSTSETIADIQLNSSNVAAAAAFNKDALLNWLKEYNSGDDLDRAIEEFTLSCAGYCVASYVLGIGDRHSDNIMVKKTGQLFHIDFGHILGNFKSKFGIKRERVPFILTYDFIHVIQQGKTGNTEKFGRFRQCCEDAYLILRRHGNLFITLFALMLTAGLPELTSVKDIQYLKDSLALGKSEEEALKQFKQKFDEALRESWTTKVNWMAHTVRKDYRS
# Assay Notes: Inhibition of recombinant human p110beta/N-terminal His-tagged human p85alpha expressed in baculovirus infected sf cells using L-alpha-phosphatidylinositol as substrate after 1 hr in presence of [gamma33]-ATP by thin layer chromatographic analysis
Measure Name: IC50 (nM)
Answer format: numeric, nM implied, no suffix.

Smiles Str | IC50, nM
C/C(=N\NS(=O)(=O)c1cc([N+](=O)[O-])ccc1N(C)Cc1ccccn1)c1cnn2ccc(C#N)cc12 | 207
CN(CCCN1CCOCC1)c1ccc([N+](=O)[O-])cc1S(=O)(=O)N(C)/N=C/c1cnn2ccc(C#N)cc12 | 510

Query: Consider the compound CN(CCN1CCOCC1)c1ccc([N+](=O)[O-])cc1S(=O)(=O)N(C)/N=C/c1cnn2ccc(C#N)cc12 and give its measured IC50.
Result: 1000

Query: One more compound: CN(Cc1cccnc1)c1ccc([N+](=O)[O-])cc1S(=O)(=O)N(C)/N=C/c1cnn2ccc(C#N)cc12
Result: 530

Query: Same again, this time with CN(C)CCN(C)c1ccc([N+](=O)[O-])cc1C(=O)N(C)/N=C/c1cnn2ccc(C#N)cc12
Result: 230

Query: Consider next the compound CN(C)CCCN(C)c1ccc([N+](=O)[O-])cc1S(=O)(=O)N(C)/N=C/c1cnn2ccc(C#N)cc12 in the same way.
Result: 76

Query: // repeat for CN(/N=C/c1cnn2ccc(C#N)cc12)S(=O)(=O)c1cc([N+](=O)[O-])ccc1OCCN1CCOCC1 and report
Result: 220

###

Entries and their measured pIC50 follow.
# Measurement Target: Phosphatidylinositol 4,5-bisphosphate 3-kinase catalytic subunit delta isoform (Homo sapiens)
# Sequence (O00329 whole entry, canonical isoform): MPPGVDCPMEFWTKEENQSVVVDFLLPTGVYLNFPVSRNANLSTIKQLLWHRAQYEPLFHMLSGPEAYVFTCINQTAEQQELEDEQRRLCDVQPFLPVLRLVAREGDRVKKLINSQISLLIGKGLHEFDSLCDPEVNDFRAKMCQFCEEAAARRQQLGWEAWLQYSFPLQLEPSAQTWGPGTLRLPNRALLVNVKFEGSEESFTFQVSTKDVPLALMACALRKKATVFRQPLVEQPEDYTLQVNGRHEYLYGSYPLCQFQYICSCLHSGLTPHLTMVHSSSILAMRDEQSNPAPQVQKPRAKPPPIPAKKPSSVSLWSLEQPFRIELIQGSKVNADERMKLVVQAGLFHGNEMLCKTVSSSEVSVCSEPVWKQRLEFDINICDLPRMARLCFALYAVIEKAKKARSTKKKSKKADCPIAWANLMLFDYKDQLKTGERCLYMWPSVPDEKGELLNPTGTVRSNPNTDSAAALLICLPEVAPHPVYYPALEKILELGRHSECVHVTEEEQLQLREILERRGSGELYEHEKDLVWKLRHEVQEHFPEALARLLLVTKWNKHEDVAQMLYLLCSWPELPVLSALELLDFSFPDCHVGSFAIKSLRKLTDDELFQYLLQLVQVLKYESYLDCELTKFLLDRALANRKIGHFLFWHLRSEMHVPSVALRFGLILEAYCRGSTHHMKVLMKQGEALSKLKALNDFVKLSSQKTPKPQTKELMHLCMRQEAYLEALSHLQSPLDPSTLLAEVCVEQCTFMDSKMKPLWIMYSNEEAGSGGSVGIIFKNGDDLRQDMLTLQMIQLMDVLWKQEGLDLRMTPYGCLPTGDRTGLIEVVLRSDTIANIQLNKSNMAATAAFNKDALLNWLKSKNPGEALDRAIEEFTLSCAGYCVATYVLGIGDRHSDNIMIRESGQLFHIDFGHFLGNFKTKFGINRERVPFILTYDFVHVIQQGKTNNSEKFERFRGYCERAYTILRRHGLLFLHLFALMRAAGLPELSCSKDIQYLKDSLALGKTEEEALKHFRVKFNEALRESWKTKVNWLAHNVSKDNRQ
# Assay Notes: Inhibition of p110delta (unknown origin) using L-alpha phosphatidylinositol as substrate after 1 hr in presence of [gamma33]-ATP by thin layer chromatographic analysis
Note on units: pIC50 is unitless, being -log10 of a concentration expressed in mol/L.

Reference set, count: 8
Smiles Str | pIC50
CN(C)CCN(C)c1ccc(C#N)cc1S(=O)(=O)N(C)/N=C/c1cnn2ccc(C#N)cc12 | 6.42
C/C(=N\NS(=O)(=O)c1cc([N+](=O)[O-])ccc1N(C)Cc1ccccn1)c1cnn2ccc(C#N)cc12 | 7.96
CN(CCN)c1ccc([N+](=O)[O-])cc1S(=O)(=O)N(C)/N=C/c1cnn2ccc(C#N)cc12 | 6.33
CCN(CC)CCN(C)c1ccc([N+](=O)[O-])cc1S(=O)(=O)N(C)/N=C/c1cnn2ccc(C#N)cc12 | 7.18
CN(CCCN1CCOCC1)c1ccc(C#N)cc1S(=O)(=O)N(C)/N=C/c1cnn2ccc(C#N)cc12 | 6.43
CN(/N=C/c1cnn2ccc(C#N)cc12)S(=O)(=O)c1cc([N+](=O)[O-])ccc1NCc1ccccn1 | 6.46
CN(CCN1CCCCC1)c1ccc([N+](=O)[O-])cc1S(=O)(=O)N(C)/N=C/c1cnn2ccc(C#N)cc12 | 6.35
C/C(=N\N(C)S(=O)(=O)c1cc([N+](=O)[O-])ccc1N(C)CCN(C)C)c1cnn2ccc(C#N)cc12 | 6.18

Query: May I ask what pIC50 has been recorded for CN(/N=C/c1cnn2ccc(C#N)cc12)S(=O)(=O)c1cc([N+](=O)[O-])ccc1OCc1ccccn1 ?
Result: 6.02

Query: Thanks! And CN(CCc1ccncc1)c1ccc([N+](=O)[O-])cc1S(=O)(=O)N(C)/N=C/c1cnn2ccc(C#N)cc12 ?
Result: 7.21

Query: Let us now turn to C/C(=N\N(C)S(=O)(=O)c1cc([N+](=O)[O-])ccc1N(C)Cc1ccccn1)c1cnn2ccc(C#N)cc12
Result: 6.24

Query: How about this compound: CN(CCc1c[nH]cn1)c1ccc([N+](=O)[O-])cc1S(=O)(=O)N(C)/N=C/c1cnn2ccc(C#N)cc12
Result: 7.06

Query: Queued: C/C(=N\NS(=O)(=O)c1cc([N+](=O)[O-])ccc1N(C)Cc1ccccn1)c1cnn2ccc(Br)cc12
Result: 6.53

Query: One more compound: CN(CCc1ccccn1)c1ccc([N+](=O)[O-])cc1S(=O)(=O)N(C)/N=C/c1cnn2ccc(C#N)cc12
Result: 7.22
